Cmax values by entry
# Assay info: Mouse pharmacokinetics in plasma and brain
# Assay type: in vivo, CD1 mice
# Condition details: mouse; plasma, 5 mg/kg IV single dose; read-out: plasma maximum concentration (Cmax)

Molecule: O=C(Nc1cccnc1)c1cccs1 [Compound 1, N-(pyridin-3-yl)thiophene-2-carboxamide]
Cmax, ng/mL: 1160
//
Molecule: O=C(Nc1cccs1)c1cccnc1 [Compound 9, N-(Thiophen-2-yl)nicotinamide]
Cmax, ng/mL: 4830

---

# Assay info: Mouse pharmacokinetics in plasma and brain
# Assay type: in vivo, CD1 mice
# Condition details: mouse; brain, 5 mg/kg IV single dose; read-out: brain Cmax
Cmax values by entry
Property measured: Cmax (ng/g)

Compound: O=C(Nc1cccs1)c1cccnc1 [Compound 9, N-(Thiophen-2-yl)nicotinamide]
Property measured: Cmax
Recorded measurement: 1600

Compound: O=C(Nc1cccnc1)c1cccs1 [Compound 1, N-(pyridin-3-yl)thiophene-2-carboxamide]
Property measured: Cmax
Recorded measurement: 2220

---

# Tested on: human MPNST cell line S462
# Assay info: S462 cell viability (CellTiter-Glo, 72 h)
# Format: cell-based
# Condition details: Nam-free DMEM, addition of 1.4 μM Nam; read-out: IC50
# Description: This similarity, in addition to the scaffold's particular sensitivity to modifications around the pyridinyl ring led us to hypothesize that the activity of compounds 1 and 9 may depend on the concentration of Nam in the media. To test this hypothesis, we analyzed the activity of both compounds in media supplemented with increasing concentrations of Nam. […]
pIC50: −log10 of the molar value.

Compound: O=C(Nc1cccs1)c1cccnc1 [Compound 9, N-(Thiophen-2-yl)nicotinamide]
Measurement target: human MPNST cell line S462
pIC50: 7.29

---

# Assay info: Mouse pharmacokinetics in plasma and brain
# Type: in vivo, CD1 mice
# Condition details: mouse; brain, 5 mg/kg IV; assuming brain density of 1 g/ml; read-out: brain Cmax
# Description: GBM, which is reported to be a potential target for these compounds, is an intracranial tumor, and thus, effective drugs must cross the blood-brain barrier. Therefore, in addition to plasma, we analyzed compound and metabolite levels in mouse brain. Following the administration of a single 5 mg/kg intravenous (IV) injection of either 1 or 9, we quantified the levels of each compound in both plasma and brain. […]

Compound: O=C(Nc1cccs1)c1cccnc1 [Compound 9, N-(Thiophen-2-yl)nicotinamide]
Unit name: µM
Cmax: 7.8
//
Compound: O=C(Nc1cccnc1)c1cccs1 [Compound 1, N-(pyridin-3-yl)thiophene-2-carboxamide]
Unit name: µM
Cmax: 10.8

---

# Assay info: Levels of 9 in media and cells over time
# Format: cell-based
# Condition details: cells in nam-free dmem; 10% FBS Nam-free DMEM

Molecule: O=C(Nc1cccs1)c1cccnc1 [Compound 9, N-(Thiophen-2-yl)nicotinamide]
half-life at 0.5 µM: ~3.8 h

---

# Test system: IMPDH
# Assay info: Guanosine co-titration rescue
# Type: cell-based
# Condition details: guanosine co-titrated

Compound: O=C(NCc1cccnc1)Nc1ccc([N+](=O)[O-])cc1 [vacor, reference compound]
guanosine rescue of toxicity: no rescue
//
Compound: CC(=O)c1cccnc1 [Compound 3-AP, 3-acetylpyridine, reference compound]
guanosine rescue of toxicity: no rescue

---

# System: iHCT116 cells
# Assay info: iHCT116 cell viability with or without ectopic NMNAT1 expression
# Type: cell-based
# Condition details: parental iHCT116, mock-infected

Molecule: O=C(Nc1cccs1)c1cccnc1 [Compound 9, N-(Thiophen-2-yl)nicotinamide]
Measurement target: iHCT116 cells
Unit name: nM
IC50: 49.7

---

# Assay info: Mouse pharmacokinetics in plasma and brain
# Type: in vivo, CD1 mice
# Condition details: mouse; plasma, 5 mg/kg IV single dose, molar; read-out: plasma maximum concentration (Cmax)
Property measured: Cmax (µM)

Compound: O=C(Nc1cccnc1)c1cccs1 [Compound 1, N-(pyridin-3-yl)thiophene-2-carboxamide]
Recorded measurement: 5.65
--
Compound: O=C(Nc1cccs1)c1cccnc1 [Compound 9, N-(Thiophen-2-yl)nicotinamide]
Recorded measurement: 23.7

---

# Tested on: iHCT116 cells
# Assay info: iHCT116 cell viability with or without ectopic NMNAT1 expression
# Type: cell-based
# Condition details: representative resistant clone with low NMNAT1 expression
# Excerpt: Second, we screened for resistance to 9 in iHCT116 cells, a system that uses inducible mutagenesis and forward genetics to find compound-resistant mutations and thus can reveal both loss of function and gain of function alleles that suppress activity. […] Having previously established a relationship between either NMNAT1 levels or NAMPT activity and compound resistance, we analyzed the levels of both enzymes in multiple resistant clones that harbored unique barcode sequences. […]
Property measured: IC50 (nM)

Compound: O=C(Nc1cccs1)c1cccnc1 [Compound 9, N-(Thiophen-2-yl)nicotinamide]
Measurement target: iHCT116 cells
Recorded measurement: 574

---

# Tested on: iHCT116 cells
# Assay info: iHCT116 cell viability with or without ectopic NMNAT1 expression
# Assay type: cell-based
# Condition details: parental iHCT116, NMNAT1-expression

Molecule: O=C(Nc1cccs1)c1cccnc1 [Compound 9, N-(Thiophen-2-yl)nicotinamide]
Measurement target: iHCT116 cells
IC50 [nM]: 26.9

---

# System: HCT116 cells
# Assay info: Cas9-expressing HCT116 cell viability
# Type: cell-based
# Condition details: Cas9-expressing HCT116, 10% FBS Nam-free DMEM
pIC50: −log10 of the molar value.
Property measured: pIC50

Compound: O=C(Nc1cccs1)c1cccnc1 [Compound 9, N-(Thiophen-2-yl)nicotinamide]
Recorded measurement: 7.68

---

Kp values by entry
# Assay info: Mouse pharmacokinetics in plasma and brain
# Assay type: in vivo, CD1 mice
# Condition details: mouse, brain; 5 mg/kg IV; read-out: brain to blood exposure (AUCBrain/AUCplasma)
Property measured: Kp

Compound: O=C(Nc1cccs1)c1cccnc1 [Compound 9, N-(Thiophen-2-yl)nicotinamide]
Property measured: Kp
Recorded measurement: 2.85
//
Compound: O=C(Nc1cccnc1)c1cccs1 [Compound 1, N-(pyridin-3-yl)thiophene-2-carboxamide]
Property measured: Kp
Recorded measurement: 3.45
